Source of measurements: ChEMBL document CHEMBL3044820

Test system: Plasmodiophora brassicae
Experiment: Fungicidal activity against clubroot disease causing Plasmodiophora brassicae infested Brassica campestris under greenhouse condition assessed as disease incidence at 4 kg a.i/ha treated to soil measured after 40 to 50 days
Format: functional
As shown below, each of these molecules has a reported Activity value.
Readout Label: Activity

>>> print(df.to_string())
                                         smi  readout_label  endpoint_result
 0  Cc1ccc(S(=O)(=O)Nc2ccc([N+](=O)[O-])cc2Cl)cc1       Activity             >91%
 1  Cc1cc([N+](=O)[O-])ccc1NS(=O)(=O)c1cc(C(F)(F)F)ccc1Cl       Activity             >91%
 2  Cc1cc([N+](=O)[O-])ccc1NS(=O)(=O)c1cc(Cl)ccc1Cl       Activity             >91%
 3  O=[N+]([O-])c1ccc(NS(=O)(=O)c2cccc(C(F)(F)F)c2)c(F)c1       Activity             >91%
 4  O=S(=O)(Nc1ccc(C(F)(F)F)cc1)c1ccc(Cl)c(Cl)c1       Activity             >91%
 5  O=[N+]([O-])c1ccc(NS(=O)(=O)c2ccc(Cl)cc2)c(Cl)c1       Activity             >91%
 6  Cc1cc([N+](=O)[O-])ccc1NS(=O)(=O)c1ccc(Cl)cc1       Activity             >91%
 7  Cc1ccc(S(=O)(=O)Nc2ccc([N+](=O)[O-])cc2Cl)cc1[N+](=O)[O-]       Activity             >91%
 8  O=[N+]([O-])c1ccc(NS(=O)(=O)c2ccccc2)c(Cl)c1       Activity             >91%
 9  O=[N+]([O-])c1ccc(NS(=O)(=O)c2cc(Cl)c(Cl)cc2Cl)c(F)c1       Activity             >91%
10  O=S(=O)(Nc1ccc(C(F)(F)F)cc1Cl)c1ccc(Cl)c(Cl)c1       Activity             >91%
11  O=S(=O)(Nc1ccc(C(F)(F)F)cc1Cl)c1ccc(Cl)cc1       Activity             >91%
12  Cc1cc([N+](=O)[O-])ccc1NS(=O)(=O)c1ccc(Cl)c(C(F)(F)F)c1       Activity             >91%
13  Cc1cc([N+](=O)[O-])ccc1NS(=O)(=O)c1ccc(Cl)c(Cl)c1       Activity             >91%
14  Cc1cc([N+](=O)[O-])ccc1NS(=O)(=O)c1cccc(C(F)(F)F)c1       Activity             >91%
15  Cc1ccc(C)c(S(=O)(=O)Nc2ccc([N+](=O)[O-])cc2C)c1       Activity             >91%
16  Cc1ccc(C)c(S(=O)(=O)Nc2ccc([N+](=O)[O-])cc2Cl)c1       Activity             >91%
17  O=[N+]([O-])c1cc(Cl)c(NS(=O)(=O)c2ccc(Cl)cc2)c(Cl)c1       Activity             >91%
18  N#Cc1ccc(NS(=O)(=O)c2cccc(C(F)(F)F)c2)c(Cl)c1       Activity             >91%
